target: Adenosine receptor A1 (Bos taurus); experiment: Displacement of [3H]phenylisopropyladenosine from adenosine A1 receptor in bovine cerebral cortex membrane
Sequence (P28190 whole entry): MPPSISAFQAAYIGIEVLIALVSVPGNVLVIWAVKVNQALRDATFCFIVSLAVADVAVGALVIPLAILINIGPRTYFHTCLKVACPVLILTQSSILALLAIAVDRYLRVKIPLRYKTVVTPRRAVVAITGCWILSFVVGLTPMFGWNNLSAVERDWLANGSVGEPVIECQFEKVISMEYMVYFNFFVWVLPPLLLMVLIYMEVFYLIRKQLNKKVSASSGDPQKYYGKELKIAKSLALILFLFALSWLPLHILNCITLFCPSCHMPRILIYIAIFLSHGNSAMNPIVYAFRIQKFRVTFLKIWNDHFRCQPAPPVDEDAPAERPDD

Entry Smiles | IC50
COc1cc(-c2oc3c(OC)cc(CCCO)cc3c2C=O)ccc1O | 17 nM

Where do the numbers come from? From ChEMBL document CHEMBL1158276.
